Entries annotated with measured metabolic activity: OD 492 nm divided by OD of control (control = 1)
Test system: Tannerella forsythia
Assay: Phenotype microarray metabolic activity
Assay type: cell-based
Settings: T forsythia; 48 hrs

chemical_structure: CC(=O)N[C@H](C=O)[C@@H](O)[C@H](O)[C@H](O)CO
result: 0.9443
--
chemical_structure: OC[C@H]1O[C@@](O)(CO)[C@@H](O[C@H]2O[C@H](CO)[C@@H](O)[C@H](O)[C@H]2O)[C@@H]1O
result: 1.1254
--
chemical_structure: OC[C@H]1O[C@@](CO)(O[C@H]2O[C@H](CO)[C@@H](O)[C@H](O)[C@H]2O)[C@@H](O[C@H]2O[C@H](CO)[C@@H](O)[C@H](O)[C@H]2O)[C@@H]1O
result: 0.9912
--
chemical_structure: O[C@H]1[C@H](O)[C@@H](O)[C@H](O)[C@@H](O)[C@H]1O
result: 0.9564

As a next step, examine the molecule that follows.
-- ask Report measured metabolic activity: OD 492 nm divided by OD of control (control = 1); entry is OC[C@@H](O)[C@@H](O[C@H]1O[C@H](CO)[C@H](O)[C@H](O)[C@H]1O)[C@H](O)[C@@H](O)CO
-- reply 1.1172

* * *

Entries annotated with measured biofilm growth: OD 630 nm at 24 hrs divided by OD of control (control = 1)
Tested on: S. salivarius
Experiment: Twenty-four hour biofilm growth (crystal violet)
Type: cell-based
Conditions: 5 μmol/ml
The answer should be a number; do not append a unit.

Answered cases to consult:
chemical_structure: O[C@H]1[C@H](O)[C@@H](O)[C@H](O)[C@@H](O)[C@H]1O
study_target: S. salivarius
numeric_value: 0.8358
--
chemical_structure: OC[C@H]1O[C@@](O)(CO)[C@@H](O[C@H]2O[C@H](CO)[C@@H](O)[C@H](O)[C@H]2O)[C@@H]1O
study_target: S. salivarius
numeric_value: 0.9812
--
chemical_structure: CC(=O)N[C@H](C=O)[C@@H](O)[C@H](O)[C@H](O)CO
study_target: S. salivarius
numeric_value: 0.6489

-- ask Report measured biofilm growth: OD 630 nm at 24 hrs divided by OD of control (control = 1); entry is OC[C@@H](O)[C@@H](O[C@H]1O[C@H](CO)[C@H](O)[C@H](O)[C@H]1O)[C@H](O)[C@@H](O)CO
-- reply 2.1471

* * *

System: Tannerella forsythia
Assay: Twenty-four hour optical density growth in BHI
Assay type: cell-based
Conditions: T forsythia; 20 μmol/ml
observed_property: extent of growth: maximal OD630 over 24 hr divided by maximal OD of control (control = 1)
The answer should be a number; do not append a unit.

compound: CC(=O)N[C@H](C=O)[C@@H](O)[C@H](O)[C@H](O)CO [N-acetyl-D-mannosamine, 2-acetamido-2-deoxy-D-mannose]
numeric_value: 0.9706

-- ask Report measured extent of growth: maximal OD630 over 24 hr divided by maximal OD of control (control = 1); entry is OC[C@H]1O[C@@](O)(CO)[C@@H](O[C@H]2O[C@H](CO)[C@@H](O)[C@H](O)[C@H]2O)[C@@H]1O [D-Turanose]
-- reply 0.9299

-- ask Report measured extent of growth: maximal OD630 over 24 hr divided by maximal OD of control (control = 1); entry is O[C@H]1[C@H](O)[C@@H](O)[C@H](O)[C@@H](O)[C@H]1O [Myo-Inositol]
-- reply 0.9286

-- ask Report measured extent of growth: maximal OD630 over 24 hr divided by maximal OD of control (control = 1); entry is OC[C@@H](O)[C@@H](O[C@H]1O[C@H](CO)[C@H](O)[C@H](O)[C@H]1O)[C@H](O)[C@@H](O)CO [D-Lactitol, 4-O-α-D-galactopyranosyl-D-glucitol]
-- reply 0.9426
